The reported numbers originate from patent US20170362301A1.

- tgt: EGFR (form in the assay not stated) (human, UniProt P00533 25-645, limits assumed)
- assay_notes: ELISA, NEM conjugate 100 nM
reported_metric: binding ratio vs parent P54AR4-83v2 (ratio)
Write the answer as a number in ratio, unit excluded.

Example entries and their recorded answers appear below.
P54AR4-83v2 K79C, NEM conjugate (designed binder, NEM on Cys 79, His-tagged) LPAPKNLVVSEVTEDSARLSWDDPWAFYESFLIQYQESEKVGEAIVLTVPGSERSYDLTGLKPGTEYTVSIYGVHNVYCDTNMRGLPLSAIFTT; 0.99
P54AR4-83v2 N6C, NEM conjugate (designed binder, NEM on Cys 6, His-tagged) LPAPKCLVVSEVTEDSARLSWDDPWAFYESFLIQYQESEKVGEAIVLTVPGSERSYDLTGLKPGTEYTVSIYGVHNVYKDTNMRGLPLSAIFTT; 1.01

From here, focus on the item given below.
Any idea what its binding ratio vs parent P54AR4-83v2 is? The binder is P54AR4-83v2 Y72C, NEM conjugate (designed binder, NEM on Cys 72, His-tagged) LPAPKNLVVSEVTEDSARLSWDDPWAFYESFLIQYQESEKVGEAIVLTVPGSERSYDLTGLKPGTEYTVSICGVHNVYKDTNMRGLPLSAIFTT
1
